- test target: cruzain (Trypanosoma cruzi, UniProt P25779);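 also: at 5 µM compound concentration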
- Sequence (P25779 123-337 limits assumed): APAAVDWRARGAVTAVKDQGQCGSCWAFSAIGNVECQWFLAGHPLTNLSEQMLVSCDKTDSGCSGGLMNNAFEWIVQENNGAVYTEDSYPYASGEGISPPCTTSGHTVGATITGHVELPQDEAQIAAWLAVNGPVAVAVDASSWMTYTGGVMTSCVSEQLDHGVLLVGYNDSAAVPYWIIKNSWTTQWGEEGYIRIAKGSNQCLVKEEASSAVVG
- assay name: biochemical
- cond: 10’ (pre-incubation); sheet Screening results
assay metric: Cruzain Inhibition 10’ (%)
Kindly provide the numeric value in % only, without the unit symbol.

Cn1ncc2c(N3CCOCC3)nc(NCCc3c[nH]c4ccccc34)nc21; 15
Nc1ncc(-c2ccc(C(F)(F)F)nc2)cc1-c1ccc(C(F)(F)F)nc1; -3
O=C1Nc2ccc(Br)cc2C12NCCc1c2[nH]c2ccccc12 (stereo not drawn); 2.2
CO/C=C(\C(=O)OC)c1ccccc1Oc1cc(Oc2ccccc2C#N)ncn1; 6.5
CC1COC(Cn2cncn2)(c2ccc(Oc3ccc(Cl)cc3)cc2Cl)O1 (stereo not drawn); 10
Clc1ccc(CN2CCN(C3=NCCN3)CC2)cc1Cl; -0.1
c1ccc(-c2cc(N3CCCCC3)c3ccccc3n2)nc1; -4.5
C[C@H]1COC2(CCN(c3nc(=O)c4cc(C(F)(F)F)cc([N+](=O)[O-])c4s3)CC2)O1; 1.7

// next entry
Qu. Would you kindly share the measured Cruzain Inhibition 10’ for CC(C)(C)n1nc(-c2ccccc2)c2c(N)ncnc21 ?
Ans. 10
